Data provenance: patent US20230233569A1

System: NCI-H358 (K-Ras G12C)
Assay: CellTiter-Glo cell viability assay, 5-day treatment
Format: cell-based
Details: Homo sapiens, NCI-H358, H358, K-Ras G12C; read-out: Additional H358 Cell Viability assay data (K-Ras G12C, IC50)
pIC50: −log10 of the molar value.
metric.name: pIC50

Request: Would you kindly share the measured pIC50 for C=CC(=O)N(C)[C@H]1CN(C(=O)N(C)[C@H](C(=O)N[C@H]2Cc3nc(cs3)-c3ccc4c(c3)c(c(-c3cccnc3[C@H](C)OC)n4CC)CC(C)(C)COC(=O)C3CCCN(N3)C2=O)C(C)C)C[C@H]1F (stereo partly shown) [Example A631] ?
Response: > 8.00

Request: Give the measured pIC50 of C=CC(=O)N1CC2(C1)OCCN2C(=O)N(C)[C@H](C(=O)N[C@H]1Cc2nc(cs2)-c2ccc3c(c2)c(c(-c2cccnc2[C@H](C)OC)n3CC)CC(C)(C)COC(=O)C2CCCN(N2)C1=O)C(C)C (stereo partly shown) [Example A620] .
Response: > 8.00

Request: Endpoint output: pIC50 of CCn1c(-c2cccnc2COC)c2c3cc(ccc31)-c1cc(O)cc(c1)C[C@H](NC(=O)[C@H](C(C)C)N(C)C(=O)[C@H]1CCN(C(=O)C#CC(C)(C)N(C)C)C1)C(=O)N1CCC[C@H](N1)C(=O)OCC(C)(C)C2 [Example A162] . Value?
Response: > 8.00

Request: Which pIC50 value belongs to C=CC(=O)N1CC[C@H](C(=O)N(C)[C@H](C(=O)N[C@H]2Cc3cc(O)cc(c3)-c3ccc4c(c3)c(c(-c3cc(CN(C)C)cnc3COC)n4CC)CC(C)(C)COC(=O)[C@@H]3CCCN(N3)C2=O)C(C)C)C1 [Example A149] ?
Response: 7.00 to 8.00
